The measurements presented in this section are drawn from ChEMBL document CHEMBL3991601.

system_tested: Pyridoxal kinase (Homo sapiens); further: in the data inactive means no Kd found up to 30 µM
Sequence (O00764 whole entry): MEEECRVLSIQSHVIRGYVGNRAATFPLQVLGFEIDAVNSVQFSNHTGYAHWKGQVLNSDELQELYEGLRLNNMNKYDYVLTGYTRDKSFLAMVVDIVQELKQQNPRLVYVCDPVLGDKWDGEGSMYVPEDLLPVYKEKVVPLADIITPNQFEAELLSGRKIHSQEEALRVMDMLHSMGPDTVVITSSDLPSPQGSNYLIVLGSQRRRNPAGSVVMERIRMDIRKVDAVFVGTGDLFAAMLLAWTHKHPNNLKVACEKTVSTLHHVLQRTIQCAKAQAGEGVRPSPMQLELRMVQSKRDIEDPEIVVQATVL
Activity calls are given as the source filed them.

compound	Kd
COc1cc([C@@H]2c3cc4c(cc3[C@H](O)[C@H]3COC(=O)[C@@H]23)OCO4)cc(OC)c1OC	> 30 µM (inactive)
Cn1cnc2c(F)c(Nc3ccc(Br)cc3F)c(C(=O)NOCCO)cc21	> 30 µM (inactive)
Cn1ncc(Cl)c1-c1cc(C(=O)N[C@H](CN)Cc2ccc(F)c(F)c2)oc1Cl	> 30 µM (inactive)
CN1C/C=C/CCOc2cccc(c2)-c2ccnc(n2)Nc2cccc(c2)C1	> 30 µM (inactive)
O=C1NC(=O)[C@@H](c2cn3c4c(cccc24)CCC3)[C@@H]1c1c[nH]c2ccccc12 [TIVANTINIB]	> 30 µM (inactive)
N#CC[C@H](C1CCCC1)n1cc(-c2ncnc3[nH]ccc23)cn1	> 30 µM (inactive)
C=CC(=O)Nc1cc2c(Nc3ccc(F)c(Cl)c3)ncnc2cc1C#CC(C)(C)N1CCN(C)CC1 [AV-412 FREE BASE]	> 30 µM (inactive)
CCCCCCCCCCCCCCCCCCOP(=O)([O-])OC1CC[N+](C)(C)CC1	> 30 µM (inactive)
CCn1cc(-c2ccnc3[nH]c(-c4cccc(CN(C)C)c4)cc23)c(-c2ccc(NC(=O)N(C)C)cc2)n1	> 30 µM (inactive)
Cn1cc(-c2cnn3c(N)c(Br)c([C@@H]4CCCNC4)nc23)cn1	> 30 µM (inactive)
O=C(Nc1c[nH]nc1-c1nc2cc(CN3CCOCC3)ccc2[nH]1)NC1CC1	> 30 µM (inactive)
Cc1cc(C(=O)NOCCO)c(Nc2ccc(I)cc2F)n(C)c1=O	> 30 µM (inactive)
COCc1c(-c2ccc(NC(=O)Nc3cc(C(F)(F)F)ccc3F)c(F)c2)c2c(N)ncnn2c1CN1CCOCC1	> 30 µM (inactive)
Cc1cccc(-c2nn3c(c2-c2ccnc4ccc(C(N)=O)cc24)CCC3)n1	> 30 µM (inactive)
CN(C[C@@H]1COCCO1)S(=O)(=O)Nc1ccc2ccc3ncc(-c4cnn(C)c4)cc3c(=O)c2c1	> 30 µM (inactive)
N#CC1(c2ccc(NC(=O)c3cccnc3NCc3ccncc3)cc2)CCCC1	> 30 µM (inactive)
CCNC(=O)C#Cc1ccc2c(c1)NC(=O)/C2=C(\Nc1ccc(CN(C)C)cc1)c1ccccc1	> 30 µM (inactive)

---

system_tested: Ephrin type-A receptor 5 (Homo sapiens, UniProt P54756); further: in the data inactive means no Kd found up to 30 µM
Sequence (P54756 whole entry): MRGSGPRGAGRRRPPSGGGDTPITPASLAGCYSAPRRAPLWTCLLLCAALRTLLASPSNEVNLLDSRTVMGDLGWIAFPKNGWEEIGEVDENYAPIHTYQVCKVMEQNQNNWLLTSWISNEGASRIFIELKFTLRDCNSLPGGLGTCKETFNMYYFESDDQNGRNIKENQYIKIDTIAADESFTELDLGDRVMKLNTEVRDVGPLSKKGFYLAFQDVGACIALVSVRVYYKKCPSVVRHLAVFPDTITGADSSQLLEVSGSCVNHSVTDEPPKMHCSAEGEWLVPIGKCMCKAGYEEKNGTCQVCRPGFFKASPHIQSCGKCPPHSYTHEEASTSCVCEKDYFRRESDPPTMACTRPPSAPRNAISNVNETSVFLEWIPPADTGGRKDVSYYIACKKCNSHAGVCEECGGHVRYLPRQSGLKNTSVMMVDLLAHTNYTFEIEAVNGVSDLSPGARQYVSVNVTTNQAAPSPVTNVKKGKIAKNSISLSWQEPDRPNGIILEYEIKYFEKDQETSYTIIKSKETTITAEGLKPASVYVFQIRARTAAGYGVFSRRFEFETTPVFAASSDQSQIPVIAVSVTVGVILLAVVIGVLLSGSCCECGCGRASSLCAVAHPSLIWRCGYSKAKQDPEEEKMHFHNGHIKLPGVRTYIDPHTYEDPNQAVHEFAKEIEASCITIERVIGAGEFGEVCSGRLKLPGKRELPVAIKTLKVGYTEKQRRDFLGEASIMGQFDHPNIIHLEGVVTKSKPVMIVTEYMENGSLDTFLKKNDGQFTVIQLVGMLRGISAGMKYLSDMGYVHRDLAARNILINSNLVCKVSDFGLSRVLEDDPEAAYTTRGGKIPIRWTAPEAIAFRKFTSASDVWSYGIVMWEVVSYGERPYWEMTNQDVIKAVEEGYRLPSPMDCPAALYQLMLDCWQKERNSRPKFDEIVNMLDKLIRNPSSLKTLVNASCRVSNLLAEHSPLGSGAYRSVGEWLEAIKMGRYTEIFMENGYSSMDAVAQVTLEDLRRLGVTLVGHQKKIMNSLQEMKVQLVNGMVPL
Counter-ions that a name gives are not always drawn. Active and inactive are the calls of the source.
Possible outcomes: class 1 = active, class 0 = inactive

molecule	assigned_category
CCS(=O)(=O)N1CCN(c2ccc(Nc3ncc(C(N)=O)c(NC4CC4)n3)cc2)CC1 [Cerdulatinib Hydrochloride]	class 0
Nc1ncnc2c1c(-c1cccc(OCc3ccccc3)c1)cn2[C@H]1C[C@@H](CN2CCC2)C1 [AEW-541]	class 0
CCS(=O)(=O)c1cccc(-c2cc(C(=O)NC3CCN(C)CC3)c(C)c3[nH]c4ncc(C)cc4c23)c1 [TAK-901]	class 1
COCC(=O)NC/C=C/c1ccc2ncnc(Nc3ccc(Oc4ccc(C)nc4)c(C)c3)c2c1 [CP-724714]	class 0
NC1(c2ccc(-c3nc4ccn5c(=O)[nH]nc5c4cc3-c3ccccc3)cc2)CCC1 [MK-2206]	class 0
CNC(=O)c1cccc2cc(Oc3ccnc4cc(OCC5(N)CC5)c(OC)cc34)ccc12 [LUCITANIB]	class 0
C[C@@H](NC(=O)c1ncnc(N)c1Cl)c1ncc(C(=O)Nc2cc(C(F)(F)F)c(Cl)cn2)s1 [TOVORAFENIB]	class 0
CO[C@H]1C[C@@H]2CC[C@@H](C)[C@@](O)(O2)C(=O)C(=O)N2CCCC[C@H]2C(=O)O[C@H]([C@H](C)C[C@@H]2CC[C@@H](OP(C)(C)=O)[C@H](OC)C2)CC(=O)[C@H](C)/C=C(\C)[C@@H](O)[C@@H](OC)C(=O)[C@H](C)C[C@H](C)/C=C/C=C/C=C/1C [RIDAFOROLIMUS]	class 0
CCNC(=O)C#Cc1ccc2c(c1)NC(=O)/C2=C(\Nc1ccc(CN(C)C)cc1)c1ccccc1	class 0
C[C@H]1CNCCCN1S(=O)(=O)c1cccc2cncc(F)c12	class 0
Cc1[nH]c(/C=C2\C(=O)Nc3ccccc32)c(C)c1CCC(=O)O [ORANTINIB]	class 0
Cc1cc(Nc2ncnc3ccc(NC4=NC(C)(C)CO4)cc23)ccc1Oc1ccn2ncnc2c1 [TUCATINIB]	class 0
COc1cc2c(Nc3ccc(Cl)c(Cl)c3F)ncnc2cc1OC[C@@H]1C[C@@H]2CN(C)C[C@@H]2C1 [TESEVATINIB]	class 0
C[C@@H](N)c1ccc(C(=O)Nc2ccnc3[nH]ccc23)cc1 [Y-39983]	class 0
O=c1[nH]ccc2cc(OC3CCNCC3)ccc12 [SAR-407899 FREE BASE]	class 0
COc1ccc(S(=O)(=O)N(C(C)=O)c2ccccc2/C=C/c2cc[n+]([O-])cc2)cc1 [HMN-214]	class 0
O=C1NC(=O)[C@@H](c2cn3c4c(cccc24)CCC3)[C@@H]1c1c[nH]c2ccccc12 [TIVANTINIB]	class 0
C#Cc1cccc(Nc2ncnc3cc(OC)c(OCCCCCCC(=O)NO)cc23)c1 [CUDC-101]	class 0
Cc1cnc(NC(=O)Nc2cc(Br)c(C)cc2OC[C@@H]2CNCCO2)cn1 [RABUSERTIB]	class 0
Cc1cccc(-c2nn3c(c2-c2ccnc4ccc(C(N)=O)cc24)CCC3)n1 [GALUNISERTIB]	class 0
COc1cc([C@@H]2c3cc4c(cc3[C@H](O)[C@H]3COC(=O)[C@@H]23)OCO4)cc(OC)c1OC [AXL-1717]	class 0
N#CC1(c2ccc(NC(=O)c3cccnc3NCc3ccncc3)cc2)CCCC1 [RIVOCERANIB]	class 0
NC(=O)Nc1cc(-c2cccc(F)c2)sc1C(=O)N[C@H]1CCCNC1 [AZD-7762]	class 0
COc1cc(Nc2ncc3c(n2)-c2ccc(Cl)cc2C(c2c(F)cccc2OC)=NC3)ccc1C(=O)O [ALISERTIB]	class 0
